Tested on: NCI-H226
Protocol Description: NCI tumour cell line growth inhibition, 48 h
Active and inactive are the calls of the source. Rule as the data show it: active = GI50 up to about 1.1 µM and inactive = higher.
Listing of entries alongside the reported GI50.

Would you please look over these solved cases?
# Compound, GI50
records = [
    ("CCOC(=O)C1Nc2ccc([N+](=O)[O-])cc2[C@H]2OCC[C@@H]12 (stereo partly specified)", "> 100 µM (inactive)"),
    ("COC(=O)NNc1c([N+](=O)[O-])cnn(-c2ccccc2)c1=O", "4.19 µM (inactive)"),
    ("CC(C)CC(=O)NC(Nc1ccc(S(=O)(=O)Nc2ncccn2)cc1)(C(F)(F)F)C(F)(F)F", "> 100 µM (inactive)"),
    ("CC(C)OP(=O)(OC(C)C)C(C(C)C)N(C)/C(N)=N/C#N (stereo unspecified)", "> 100 µM (inactive)"),
    ("O=C(N/N=C(COc1cccc(Cl)c1)\\N=C\\c1ccncc1)c1ccncc1", "> 100 µM (inactive)"),
]

Name the recorded GI50 for COC1CC(OC2CCC3(C)C(=CCC4C3C(OC(C)=O)C(OC(=O)CC(C)C)C3(C)C(C(C)=O)CCC43O)C2)OC(C)C1OC1CC(OC)C(OC2CC(OC)C(OC3OC(C)C(OC4OC(CO)C(O)C(O)C4O)C(OC)C3O)C(C)O2)C(C)O1 (stereo unspecified) .
> 75 µM (inactive)

---

Test system: TK-10
Protocol Description: NCI tumour cell line growth inhibition, 48 h
Calls of active or inactive are those of the source. Rule as the data show it: active = GI50 up to about 1.1 µM and inactive = higher.
Result category, one only: 1 for active, -1 for inactive

Worked cases, answers included:
# Compound, System Name, Class Name
data = [
    ("O=C1/C(=C/c2ccccc2)CCc2ccc([N+](=O)[O-])cc21", "TK-10", -1),
    ("O=S1(=O)N=C(SCc2c[nH]c3ccccc23)N(c2ccccc2)c2ccncc21", "TK-10", -1),
    ("Cc1ccc(NC(=O)C(=O)C2NC(=S)NC2=O)c([N+](=O)[O-])c1 (stereo unspecified)", "TK-10", -1),
    ("COc1ccc(/C=C2/SC(c3c(O)ccc4ccccc34)N(NC(=O)CCCCCCCCC(=O)NN3C(=O)/C(=C\\c4ccc(OC)c(OC)c4)SC3c3c(O)ccc4ccccc34)C2=O)cc1OC (stereo unspecified)", "TK-10", -1),
    ("C/C(=N\\NC(=S)N1CC2CCC(CC2)C1)c1cccc(C)n1", "TK-10", -1),
]

Assay outcome for OCc1ccc2c(c1)CC1(Cc3ccc(/C=N/O)cc3C1)C2 (stereo unspecified) : what was it?
-1

Please state the recorded outcome for this compound: COC(=O)C1CCCN1C(=O)OC(C)(C)C (stereo unspecified)
-1

Dear colleague, could you share the recorded outcome for `N/N=c1/nc2n(c3ncccc13)C=CNN2` when you have a moment?
-1

---

System: K562
Protocol Description: NCI tumour cell line growth inhibition, 48 h
Active and inactive are the calls of the source. No stated cut-off is given here; in the data, active = GI50 up to about 1.1 µM and inactive = higher.
Returns: one label drawn from 1 = active, -1 = inactive

# Compound, Class Name
rows = [
    ("CCOC(=O)C(=C=C=C(c1ccccc1)c1ccccc1)C(=O)OCC", -1),
]

Recorded test call requested for `CCCCCCOc1ccc(C(=O)N(C)O)cc1`
-1

Please share the test call associated with `COCN1COCN(C)C1=O` .
-1

---

System: U-251
Protocol Description: NCI tumour cell line growth inhibition, 48 h
Calls of active or inactive are those of the source. No stated cut-off is given here; in the data, active = GI50 up to about 1.1 µM and inactive = higher.
Choose one outcome from this list and give only that: active, inactive

# Molecule, Class Name
rows = [
    ("O=C1N(C2CCCCC2)C(=O)N1C1CCCCC1", "active"),
    ("Cc1ccc(S(=O)(=O)N/N=C2\\C(=O)Nc3cc(O)c(C(=O)O)cc32)cc1", "inactive"),
    ("Cc1ccc(S(=O)(=O)N/N=C\\c2c3ccccc3[n+](C)c3ccccc23)cc1", "inactive"),
    ("CCc1[nH]c(=O)nc(N)c1-c1ccc(N2CCCCC2)c([N+](=O)[O-])c1", "inactive"),
    ("CN(CC(N)=O)C(=O)N(CCCl)N=O [SARCNU]", "inactive"),
]

Please indicate how the test categorized `C=C1C[C@]23CC[C@@H]4C(CO)(CO)CC(=O)C[C@]4(C)[C@@H]2CC[C@H]1C3` .
inactive

For COc1ccc(/C=C2/SC(c3c(O)ccc4ccccc34)N(NC(=O)CCCCCCCCC(=O)NN3C(=O)/C(=C\c4ccc(OC)c(OC)c4)SC3c3c(O)ccc4ccccc34)C2=O)cc1OC (stereo not drawn) , which call appears in the assay record?
inactive

# outcome recorded in this test, key = O=S(OC12CC3CC(CC(C3)C1)C2)c1cc(Cl)cc(Cl)c1OCc1ccccc1 (stereo not drawn)
inactive

---

// reported GI50 for each item listed
Tested on: HT-29
Protocol Description: NCI tumour cell line growth inhibition, 48 h
Activity calls are given as the source filed them. Cut-off read from the data, not from the text of the source: active = GI50 up to about 1.1 µM and inactive = higher.

Completed entries (count: 5):
# Compound, System Name, Result
rows = [
    ("CC1CC(C(=O)OC2OC(COC3OC(CO)C(OC4OC(C)C(O)C(O)C4O)C(O)C3O)C(O)C(O)C2O)C2CCC3(C)C(=CCC4(C)C3CCC3C(C)(CO)C(O)C(O)CC34C)C2C1C (stereo unspecified)", "HT-29", "21.8 µM (inactive)"),
    ("N#CC1(C#N)C2C=CC(C3CC=CC32)C1(C#N)C#N (stereo unspecified)", "HT-29", "9.71 µM (inactive)"),
    ("NC(CSSCC(N)Cc1ccccc1)Cc1ccccc1 (stereo unspecified)", "HT-29", "44 µM (inactive)"),
    ("O=C1/C(=C/c2ccccc2)CCc2ccc([N+](=O)[O-])cc21", "HT-29", "> 100 µM (inactive)"),
    ("O=C1c2cc3c(cc2CC12Cc1cc4c(cc1C2)CCC4)CCC3", "HT-29", "93.8 µM (inactive)"),
]

Which GI50 value belongs to OC(C#CCN1CCCC1)(c1ccccc1)c1ccccc1Cl (stereo unspecified) ?
16.5 µM (inactive)

// lookup GI50 for `Cc1ccc(Nc2nc3c(s2)C(=O)c2ccccc2C3=O)cc1`
3.18 µM (inactive)

Entry `CCOC(=O)NNC(=O)NCCNC(=O)NNC(=O)OCC` : reported GI50 = ?
> 100 µM (inactive)

Any idea what its GI50 is? The compound is `O=C(Cc1ccccc1)NN1C(=O)/C(=C\c2ccccc2O)S/C1=N\c1ccccc1`
> 100 µM (inactive)

Request the reported GI50 associated with CC(=O)NC1CC2Oc3ccc(C)cc3C(C)(O2)C1O (stereo unspecified)
> 100 µM (inactive)

Item under review: `C/C1=C\C=C(\C(C)C)CC/C(C(=O)O)=C\CC/C(C)=C/CC1` . Reported GI50?
32 µM (inactive)

---

Tested on: OVCAR-5
Protocol Description: NCI tumour cell line growth inhibition, 48 h
The source made the active and inactive calls. Rule as the data show it: active = GI50 up to about 1.1 µM and inactive = higher.
// one of TRUE for active, FALSE for inactive, no free text

Here's what some known entries look like.
# Molecule, System Name, Class Name
rows = [
    ("COC1(OC)C[C@H](C)[C@@]23O[C@]24C2=CC(=O)C=CC2=N[C@H]3C#C/C=C\\C#C[C@]14O", "OVCAR-5", "TRUE"),
    ("C[C@@H](NC1CCC[C@@H]1O)c1ccccc1 (some centres undefined)", "OVCAR-5", "FALSE"),
]

Short answer needed: outcome of this test for `COc1cc2c(cc1OC)-c1cc(OC)c(OC)cc1[C@H]1CN3CCC[C@@]3(O)C=C21` ?
TRUE

Record request — test call for CCOc1cc(C2CC(c3ccc(NS(=O)(=O)c4cc([N+](=O)[O-])ccc4C)cc3)=NN2)ccc1O (centres undefined)
FALSE

---

System: TK-10
Protocol Description: NCI tumour cell line growth inhibition, 48 h
The source made the active and inactive calls. Cut-off read from the data, not from the text of the source: active = GI50 up to about 1.1 µM and inactive = higher.
Valid outcomes are listed here; reply with one: active, inactive

Record request — test call for O=c1cnn(C2OC(CO)C(O)C(F)C2O)c(=O)[nH]1 (stereo not drawn)
inactive

What call does the record list for CC(=O)OC12CCCCC1C1(CCCC1)NC2=O (stereo not drawn) ?
inactive

Hi team, can someone confirm the assay call for COC(=O)c1c2c(cc3c1CC1(Cc4cc5c(c(C=O)c4C1)CCC5)C3)CCC2 (stereo not drawn) ?
inactive

For `COCN1COCN(C)C1=O` , which call appears in the assay record?
inactive

Dear colleague, could you share the recorded outcome for `CC(C)NC(=O)N(Nc1ccccc1)C(C)(C)C` when you have a moment?
inactive

Look up the recorded call for Cc1cc(Br)cc(C)c1NC(=O)C(=O)C(C(=O)c1ccncc1)C1OC(=O)c2ccccc21 (stereo not drawn) in this test.
inactive

Outcome logged for `C[C@]12C[C@@H](c3ccccc3)Nc3ccccc3N1C(c1ccccc1)=NO2` in this assay:
inactive

Hi team, can someone confirm the assay call for COc1c(C2=NC(C(C)C)CO2)ccc2ccccc12 (stereo not drawn) ?
inactive

Just curious, what result did `FC(F)(F)c1nc2ccc3[nH]c4c(-c5ccccc5)nccc4c3c2[nH]1` get here?
inactive

Each compound tested received a call. Report the one for COc1cccc(C2c3cc4c(cc3OC(NNC(N)=O)C2C)OCO4)c1O (stereo not drawn) .
inactive

Called result for `COC(=O)c1cnc(Cl)cn1`
inactive

Called result for `CC(=O)Nc1ccc(NS(=O)(=O)c2ccc3nc(C)n(NS(=O)(=O)c4ccc(NC(C)=O)cc4)c(=O)c3c2)cc1`
inactive

Answer briefly: the call reported for COc1c(C)cc2c(c1O)C1C3[C@H]4SC[C@@]5(NCCC6=C5NC5C=CC=CC65)C(=O)OCC(c5c6c(c(C)c(OC(C)=O)c54)OCO6)N3[C@@H](O)C(C2)N1C (stereo partly drawn) in this assay.
active
